Tested on: PXR homodimer (NR concentration 270 nM)
Experiment: PBM binding z-score (relative to random genomic background probes); higher = stronger binding; sequences stand for … in GC…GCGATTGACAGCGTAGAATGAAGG
Label f if PBM binding z-score falls below -0.1; label t in every other case.

{"RESIDUE CODES": "CCAGACAGGTGAAAAGGTAACTCAGCCTCGATTA", "MEASURED ON": "PXR homodimer (NR concentration 270 nM)", "ASSIGNED CATEGORY": "t"}
{"RESIDUE CODES": "ACTATTAGTTGAGTTAGGGCAACCGATACGACGC", "MEASURED ON": "PXR homodimer (NR concentration 270 nM)", "ASSIGNED CATEGORY": "t"}
{"RESIDUE CODES": "ATCGAAAGATCGACGAGGTGAGTATACACCGTTT", "MEASURED ON": "PXR homodimer (NR concentration 270 nM)", "ASSIGNED CATEGORY": "t"}
{"RESIDUE CODES": "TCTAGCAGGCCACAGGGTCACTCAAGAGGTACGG", "MEASURED ON": "PXR homodimer (NR concentration 270 nM)", "ASSIGNED CATEGORY": "f"}
{"RESIDUE CODES": "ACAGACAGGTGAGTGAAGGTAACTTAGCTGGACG", "MEASURED ON": "PXR homodimer (NR concentration 270 nM)", "ASSIGNED CATEGORY": "f"}
{"RESIDUE CODES": "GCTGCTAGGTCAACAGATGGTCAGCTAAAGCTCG", "MEASURED ON": "PXR homodimer (NR concentration 270 nM)", "ASSIGNED CATEGORY": "f"}
{"RESIDUE CODES": "CCTCGGGGGACAGAAGGTCAGAGCTGTCCGCTTT", "MEASURED ON": "PXR homodimer (NR concentration 270 nM)", "ASSIGNED CATEGORY": "t"}
{"RESIDUE CODES": "CCAACGAGGGCATGAGTTGATAGCAAATGCCGAT", "MEASURED ON": "PXR homodimer (NR concentration 270 nM)", "ASSIGNED CATEGORY": "f"}
{"RESIDUE CODES": "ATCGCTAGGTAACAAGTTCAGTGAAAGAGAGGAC", "MEASURED ON": "PXR homodimer (NR concentration 270 nM)", "ASSIGNED CATEGORY": "t"}
{"RESIDUE CODES": "TAGCCTAGGTCATTCAGGAGCCAGTATAGAAAGC", "MEASURED ON": "PXR homodimer (NR concentration 270 nM)", "ASSIGNED CATEGORY": "f"}
{"RESIDUE CODES": "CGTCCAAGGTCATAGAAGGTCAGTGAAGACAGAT", "MEASURED ON": "PXR homodimer (NR concentration 270 nM)", "ASSIGNED CATEGORY": "t"}
{"RESIDUE CODES": "GCTAGTTGGTCAGTAAAAGCTCACACACCGGTCG", "MEASURED ON": "PXR homodimer (NR concentration 270 nM)", "ASSIGNED CATEGORY": "t"}
{"RESIDUE CODES": "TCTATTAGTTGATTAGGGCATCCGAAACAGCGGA", "MEASURED ON": "PXR homodimer (NR concentration 270 nM)", "ASSIGNED CATEGORY": "t"}
{"RESIDUE CODES": "GCGACTGGGGCATCAGCAGGTTAGCATAACTTAA", "MEASURED ON": "PXR homodimer (NR concentration 270 nM)", "ASSIGNED CATEGORY": "f"}
{"RESIDUE CODES": "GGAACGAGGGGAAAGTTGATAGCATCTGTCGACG", "MEASURED ON": "PXR homodimer (NR concentration 270 nM)", "ASSIGNED CATEGORY": "f"}
{"RESIDUE CODES": "GCTAGCAGGCCATTTGGGCCACTCAATGACGGGC", "MEASURED ON": "PXR homodimer (NR concentration 270 nM)", "ASSIGNED CATEGORY": "f"}
{"RESIDUE CODES": "TCATATAGGTAAATGCTAGGTGAAACTCCGATCT", "MEASURED ON": "PXR homodimer (NR concentration 270 nM)", "ASSIGNED CATEGORY": "t"}
{"RESIDUE CODES": "GCATATAGGTAATGCAAGGTGAAAGTCCGATTGT", "MEASURED ON": "PXR homodimer (NR concentration 270 nM)", "ASSIGNED CATEGORY": "t"}
{"RESIDUE CODES": "TCTTGTAGATCAATAGAGCTTAAGAAAGTGCGCT", "MEASURED ON": "PXR homodimer (NR concentration 270 nM)", "ASSIGNED CATEGORY": "f"}
{"RESIDUE CODES": "TGAATGAGGTTAAAGATCGGGGAACGTGGCGTCG", "MEASURED ON": "PXR homodimer (NR concentration 270 nM)", "ASSIGNED CATEGORY": "t"}
{"RESIDUE CODES": "TCTATTAGTTGATTAGGGCAGCCGAAACAGCGGA", "MEASURED ON": "PXR homodimer (NR concentration 270 nM)", "ASSIGNED CATEGORY": "t"}
{"RESIDUE CODES": "CCTACTGGGCCATAAGGTCATTGATATCAACGTT", "MEASURED ON": "PXR homodimer (NR concentration 270 nM)", "ASSIGNED CATEGORY": "t"}
{"RESIDUE CODES": "TCTTGTAGATCAAGGGTTAAGAAAGCCGAAGCCT", "MEASURED ON": "PXR homodimer (NR concentration 270 nM)", "ASSIGNED CATEGORY": "f"}
{"RESIDUE CODES": "TAGCCTTGGTCATGGGCCAGTATACCACGCGAAC", "MEASURED ON": "PXR homodimer (NR concentration 270 nM)", "ASSIGNED CATEGORY": "f"}
{"RESIDUE CODES": "CGAACGAGGGCATGAGCTGATAGCAAATGCCGAT", "MEASURED ON": "PXR homodimer (NR concentration 270 nM)", "ASSIGNED CATEGORY": "f"}
{"RESIDUE CODES": "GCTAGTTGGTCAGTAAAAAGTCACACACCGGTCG", "MEASURED ON": "PXR homodimer (NR concentration 270 nM)", "ASSIGNED CATEGORY": "f"}
{"RESIDUE CODES": "CAAACTAGGTCACCTGAAGGTCAAAGTCCGCATG", "MEASURED ON": "PXR homodimer (NR concentration 270 nM)", "ASSIGNED CATEGORY": "t"}
{"RESIDUE CODES": "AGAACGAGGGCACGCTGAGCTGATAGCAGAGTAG", "MEASURED ON": "PXR homodimer (NR concentration 270 nM)", "ASSIGNED CATEGORY": "f"}
{"RESIDUE CODES": "CCGACTGGGGCATAAGGATACCATAAGCCAGCCC", "MEASURED ON": "PXR homodimer (NR concentration 270 nM)", "ASSIGNED CATEGORY": "f"}
{"RESIDUE CODES": "GCGACTGGGGCATCAGCAGGTTACGATAACTTAA", "MEASURED ON": "PXR homodimer (NR concentration 270 nM)", "ASSIGNED CATEGORY": "f"}
{"RESIDUE CODES": "CAAACTAAGTCAAGGTCAAAGTCGGTTTGTGCCA", "MEASURED ON": "PXR homodimer (NR concentration 270 nM)", "ASSIGNED CATEGORY": "t"}
{"RESIDUE CODES": "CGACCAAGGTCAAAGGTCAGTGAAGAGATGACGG", "MEASURED ON": "PXR homodimer (NR concentration 270 nM)", "ASSIGNED CATEGORY": "t"}
{"RESIDUE CODES": "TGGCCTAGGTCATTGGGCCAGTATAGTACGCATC", "MEASURED ON": "PXR homodimer (NR concentration 270 nM)", "ASSIGNED CATEGORY": "f"}
{"RESIDUE CODES": "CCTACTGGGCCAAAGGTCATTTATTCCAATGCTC", "MEASURED ON": "PXR homodimer (NR concentration 270 nM)", "ASSIGNED CATEGORY": "t"}
{"RESIDUE CODES": "AGCATGAGGTTATACGTAGATCAGGGAAGAAAGT", "MEASURED ON": "PXR homodimer (NR concentration 270 nM)", "ASSIGNED CATEGORY": "t"}
{"RESIDUE CODES": "TAGCCTAGGTCAGGTCGGGCCAGTATACGCTATA", "MEASURED ON": "PXR homodimer (NR concentration 270 nM)", "ASSIGNED CATEGORY": "f"}
{"RESIDUE CODES": "TTACCAAGGTGAAGGGTCGTTGATGCACGCCTTG", "MEASURED ON": "PXR homodimer (NR concentration 270 nM)", "ASSIGNED CATEGORY": "f"}
{"RESIDUE CODES": "CCAGACAGGTGAGAAGGTGACTCAGCCTCGATTA", "MEASURED ON": "PXR homodimer (NR concentration 270 nM)", "ASSIGNED CATEGORY": "t"}
{"RESIDUE CODES": "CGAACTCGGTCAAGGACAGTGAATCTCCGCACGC", "MEASURED ON": "PXR homodimer (NR concentration 270 nM)", "ASSIGNED CATEGORY": "f"}
{"RESIDUE CODES": "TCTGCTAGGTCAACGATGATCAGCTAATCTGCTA", "MEASURED ON": "PXR homodimer (NR concentration 270 nM)", "ASSIGNED CATEGORY": "f"}
{"RESIDUE CODES": "TCTTCTAGATCAGCAGGTTAAGAAAGCTGGCCAA", "MEASURED ON": "PXR homodimer (NR concentration 270 nM)", "ASSIGNED CATEGORY": "f"}
{"RESIDUE CODES": "CCTACTTGGTCAGGAGGTCACACACCGGATATGA", "MEASURED ON": "PXR homodimer (NR concentration 270 nM)", "ASSIGNED CATEGORY": "t"}
{"RESIDUE CODES": "GCTGGTAGGTCAGGTTGGTCAGCTAACGGGTACG", "MEASURED ON": "PXR homodimer (NR concentration 270 nM)", "ASSIGNED CATEGORY": "t"}
{"RESIDUE CODES": "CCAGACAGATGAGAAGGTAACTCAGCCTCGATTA", "MEASURED ON": "PXR homodimer (NR concentration 270 nM)", "ASSIGNED CATEGORY": "t"}
